Test: LD50 of Example 21
Settings: in vivo, iv; species not given
assay endpoint: LD50 (mg/kg)
Write the number in mg/kg without appending the unit.

Lookup: Output measured LD50 for this item: OC1(c2ccccc2)c2ccccc2C2=NCCCCN21 (stereo not shown) [Example 21]
Found: 40

* * *

Test: acute toxicity (LD50) in mice
Settings: mouse, in vivo, sc
assay endpoint: LD50 (mg/kg)
Write the number in mg/kg without appending the unit.

Lookup: Output measured LD50 for this item: `O=C(c1ccccc1)c1ccccc1C1=NCCN1`
Found: 130

* * *

Experiment: acute toxicity (LD50) in mice
Conditions: mouse, in vivo, po
assay endpoint: LD50 (mg/kg)
Write the number in mg/kg without appending the unit.

Lookup: Output measured LD50 for this item: O=C(c1ccccc1)c1ccccc1C1=NCCN1 [Example 10, 2-(2-benzoylphenyl)-2-imidazoline]
Found: 200
